ASSAY TARGET: Mu-type opioid receptor (Mus musculus)
Sequence (P42866 whole entry): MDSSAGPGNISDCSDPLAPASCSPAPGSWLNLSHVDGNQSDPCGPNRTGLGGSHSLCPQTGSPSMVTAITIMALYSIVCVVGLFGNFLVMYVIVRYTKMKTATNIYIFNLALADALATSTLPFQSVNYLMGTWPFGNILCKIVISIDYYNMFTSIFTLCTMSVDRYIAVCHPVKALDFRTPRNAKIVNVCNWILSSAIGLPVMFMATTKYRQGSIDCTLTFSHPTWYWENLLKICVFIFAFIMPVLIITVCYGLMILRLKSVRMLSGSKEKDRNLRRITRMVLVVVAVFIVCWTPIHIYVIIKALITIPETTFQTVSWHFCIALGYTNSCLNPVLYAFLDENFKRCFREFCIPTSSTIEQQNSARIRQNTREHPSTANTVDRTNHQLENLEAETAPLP
TEST DETAILS: Displacement of [3H]DAMGO from mouse whole brain MOR
pKi: −log10 of the molar value.
MEASUREMENT NAME: pKi

The cases that follow already have their pKi on record.
query: GET /values?readout=pKi&item= C[C@@]1(c2ccccc2O)O[C@@H]2N3[C@H]1O[C@](C)(c1ccccc1O)[C@@H]3O[C@@]2(C)c1ccccc1O
result: < 6.00

query: Subsequent entry: C[C@@]1(c2ccccc2O)O[C@H]2CO[C@@H]3N2[C@H]1O[C@@]3(C)c1ccccc1O
result: < 6.00

I need pKi for every entry listed below, if you could help.
1. C[C@]1(c2ccccc2O)O[C@H]2CO[C@@H]3N2[C@H]1O[C@]3(C)c1ccccc1O
2. C[C@@]1(c2ccc(O)cc2)O[C@H]2CO[C@@H]3N2[C@H]1O[C@@]3(C)c1ccc(O)cc1
3. C[C@@]1(c2ccc(O)cc2)O[C@H]2CO[C@@H]3N2[C@H]1O[C@]3(C)c1ccc(O)cc1
4. C[C@]1(c2ccc(O)cc2)O[C@H]2CO[C@H]3CO[C@@H]1N32

result:
["< 6.00", "< 6.00", "< 6.00", "< 6.00"]

I need pKi for every entry listed below, if you could help.
1. C[C@@]1(c2ccc(O)cc2)O[C@H]2CO[C@H]3CO[C@@H]1N32
2. C[C@@]1(c2ccccc2O)O[C@@H]2N3[C@H](CO[C@H]31)O[C@]2(C)c1ccccc1O

result:
1: < 6.00; 2: 7.69

---

ASSAY TARGET: Delta-type opioid receptor (Homo sapiens)
Sequence (P41143 whole entry): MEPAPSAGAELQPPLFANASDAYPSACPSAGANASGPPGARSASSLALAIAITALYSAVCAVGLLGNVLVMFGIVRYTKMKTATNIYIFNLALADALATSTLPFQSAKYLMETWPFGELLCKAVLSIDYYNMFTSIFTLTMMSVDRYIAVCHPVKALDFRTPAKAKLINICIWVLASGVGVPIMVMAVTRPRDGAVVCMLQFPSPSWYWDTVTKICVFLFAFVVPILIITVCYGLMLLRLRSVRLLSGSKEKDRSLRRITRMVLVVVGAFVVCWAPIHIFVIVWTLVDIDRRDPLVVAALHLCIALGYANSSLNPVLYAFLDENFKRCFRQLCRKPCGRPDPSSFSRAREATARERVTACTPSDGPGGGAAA
TEST DETAILS: Agonist activity at human DOR expressed in CHO cells by [35S]GTPgammaS binding assay
MEASUREMENT NAME: EC50 (nM)
Numbers only, in nM.

query: GET /values?readout=EC50&item= C[C@@]1(c2ccccc2O)O[C@@H]2N3[C@H](CO[C@H]31)O[C@]2(C)c1ccccc1O
result: 52.7
